Recorded values, source ChEMBL document CHEMBL4831480.

species: Homo sapiens; assay: Inhibition of Matriptase (unknown origin) assessed as inhibition of release of AMC fluorescent product using […] as substrate at 10 uM incubated for 30 mins by microplate reader relative to control
Record form. Attribute: inhibition. Fill in for each entry.
Answer format: numeric, % implied, no suffix.

*Q* Which value of inhibition has been reported for `CC(C)c1ccc(C(=O)Nc2ccc(CN)cc2)c(O)c1` in the records?
*A* 13

*Q* Which value of inhibition has been reported for `Cc1ccc(C(=O)Nc2ccc(CN)cc2)c(O)c1.Cl` in the records?
*A* 0

*Q* Which value of inhibition has been reported for `Cl.NCc1ccc(NC(=O)c2ccc3ccccc3c2O)cc1` in the records?
*A* 29

*Q* Which value of inhibition has been reported for `COc1ccc2c(O)c(C(=O)Nc3ccc(CN)cc3)ccc2c1` in the records?
*A* 37

*Q* Which value of inhibition has been reported for `Cc1ccc2ccc(C(=O)Nc3ccc(CN)cc3)c(O)c2c1` in the records?
*A* 0

*Q* Which value of inhibition has been reported for `CC(C)(C)c1ccc(O)c(C(=O)Nc2ccc(CN)cc2)c1.Cl` in the records?
*A* 0

*Q* Which value of inhibition has been reported for `Cl.NCc1ccc(NC(=O)c2cc3ccccc3cc2O)cc1` in the records?
*A* 8

* * *

biological target: Kallikrein-14 (Homo sapiens); assay: Inhibition of KLK14 (unknown origin) assessed as inhibition of release of AMC fluorescent product using H-VPR-AMC as substrate at 10 uM incubated for 30 mins by microplate reader relative to control
Record form. Attribute: inhibition. Fill in for each entry.
Answer format: numeric, % implied, no suffix.

*Q* Give recorded inhibition with Kallikrein-14 (Homo sapiens) for the following compound: `Cl.NCc1ccc(NC(=O)c2cc3ccccc3cc2O)cc1`
*A* 5

*Q* Give recorded inhibition with Kallikrein-14 (Homo sapiens) for the following compound: `COc1ccc2c(O)c(C(=O)Nc3ccc(CN)cc3)ccc2c1`
*A* 16

*Q* Give recorded inhibition with Kallikrein-14 (Homo sapiens) for the following compound: `CC(C)(C)c1ccc(O)c(C(=O)Nc2ccc(CN)cc2)c1.Cl`
*A* 1.5

*Q* Give recorded inhibition with Kallikrein-14 (Homo sapiens) for the following compound: `Cl.NCc1ccc(NC(=O)c2ccc3ccccc3c2O)cc1`
*A* 11

*Q* Give recorded inhibition with Kallikrein-14 (Homo sapiens) for the following compound: `Cc1ccc2ccc(C(=O)Nc3ccc(CN)cc3)c(O)c2c1`
*A* 4

*Q* Give recorded inhibition with Kallikrein-14 (Homo sapiens) for the following compound: `Cc1ccc(C(=O)Nc2ccc(CN)cc2)c(O)c1.Cl`
*A* 3

*Q* Give recorded inhibition with Kallikrein-14 (Homo sapiens) for the following compound: `CC(C)c1ccc(C(=O)Nc2ccc(CN)cc2)c(O)c1`
*A* 12

* * *

experimentalReadout: Ki (nM)
Answer format: numeric, nM implied, no suffix.

*Q* Give recorded Ki with Kallikrein-1 (Homo sapiens, UniProt P06870) for the following molecule: `Cl.NCc1ccc(NC(=O)c2cc3ccccc3cc2O)cc1`
Sequence (P06870 whole entry): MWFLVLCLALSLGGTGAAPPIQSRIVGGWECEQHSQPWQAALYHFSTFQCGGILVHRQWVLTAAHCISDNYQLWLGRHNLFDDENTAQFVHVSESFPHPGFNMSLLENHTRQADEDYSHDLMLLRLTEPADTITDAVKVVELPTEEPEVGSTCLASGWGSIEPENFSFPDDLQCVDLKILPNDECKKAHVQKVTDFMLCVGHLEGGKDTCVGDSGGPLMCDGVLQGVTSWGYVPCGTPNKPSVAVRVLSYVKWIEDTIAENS
*A* 2400

* * *

molecular target: Kallikrein-8 (Homo sapiens); assay: Inhibition of KLK8 (unknown origin) assessed as inhibition of release of AMC fluorescent product using H-VPR-AMC as substrate at 10 uM incubated for 30 mins by microplate reader relative to control
If the reported inhibition equals or exceeds 40%, assign met. If not, assign not met.

*Q* API: above_or_equal(metric=inhibition, cutoff=40%) for item `Cl.NCc1ccc(NC(=O)c2ccc3ccccc3c2O)cc1`
*A* not met

*Q* API: above_or_equal(metric=inhibition, cutoff=40%) for item `CC(C)c1ccc(C(=O)Nc2ccc(CN)cc2)c(O)c1`
*A* met

*Q* API: above_or_equal(metric=inhibition, cutoff=40%) for item `COc1ccc2c(O)c(C(=O)Nc3ccc(CN)cc3)ccc2c1`
*A* met

*Q* API: above_or_equal(metric=inhibition, cutoff=40%) for item `CC(C)(C)c1ccc(O)c(C(=O)Nc2ccc(CN)cc2)c1.Cl`
*A* not met

*Q* API: above_or_equal(metric=inhibition, cutoff=40%) for item `Cc1ccc2ccc(C(=O)Nc3ccc(CN)cc3)c(O)c2c1`
*A* met

*Q* API: above_or_equal(metric=inhibition, cutoff=40%) for item `Cc1ccc(C(=O)Nc2ccc(CN)cc2)c(O)c1.Cl`
*A* not met

*Q* API: above_or_equal(metric=inhibition, cutoff=40%) for item `Cl.NCc1ccc(NC(=O)c2cc3ccccc3cc2O)cc1`
*A* met
